Target: Cellular tumor antigen p53 (Homo sapiens) (UniProt P04637)
Sequence (P04637 whole entry, looked up): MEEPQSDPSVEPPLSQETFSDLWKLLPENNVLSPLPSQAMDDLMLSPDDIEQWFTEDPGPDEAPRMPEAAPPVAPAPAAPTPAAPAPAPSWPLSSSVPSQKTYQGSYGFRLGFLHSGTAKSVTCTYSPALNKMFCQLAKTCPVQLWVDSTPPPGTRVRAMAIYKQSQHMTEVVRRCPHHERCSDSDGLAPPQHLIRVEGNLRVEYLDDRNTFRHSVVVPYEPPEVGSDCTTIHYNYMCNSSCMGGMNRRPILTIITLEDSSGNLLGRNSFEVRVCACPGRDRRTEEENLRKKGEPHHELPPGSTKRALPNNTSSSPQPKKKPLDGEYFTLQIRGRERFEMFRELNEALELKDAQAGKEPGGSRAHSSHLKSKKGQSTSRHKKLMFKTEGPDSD
Test: TOX21_p53_BLA_p5_ratio: Tox21 HCT-116 p53 Agonism Beta-lactamase Assay, Ratio, Phase 5 (AID 2283599)
Records with an inconclusive call do not appear. Calls of active or inactive are those of the source. Rule for the calls: active = hit-call score of the fitted dose curve at least 0.9, where 1 is the maximum; inconclusive = response in the unintended direction; inactive = score below 0.9.
Attribute Measured: outcome

Solved entries (count: 7):
[
  {
    "Compound": "CC(C)N(Cc1ccccc1)C(=O)C(C)(C)C",
    "outcome": "inactive"
  },
  {
    "Compound": "Cc1ccc(N)c(N)c1",
    "outcome": "inactive"
  },
  {
    "Compound": "CCN(CC)CCO",
    "outcome": "inactive"
  },
  {
    "Compound": "CCN(CC)N=O",
    "outcome": "inactive"
  },
  {
    "Compound": "c1ccc2c(c1)-c1cccc3cccc-2c13",
    "outcome": "inactive"
  },
  {
    "Compound": "Cc1ccc(N)cc1",
    "outcome": "inactive"
  },
  {
    "Compound": "ClC1=C(Cl)C2(Cl)C3C(Cl)C=CC3C1(Cl)C2(Cl)Cl (stereo not drawn)",
    "outcome": "inactive"
  }
]

Here's the next entry for you.
-- ask Return the recorded outcome value; entry: O=P(OCCCl)(OCCCl)OCCCl
-- reply inactive
